Assay: Apparent oral clearance in nude mouse at 30 mg/kg, po by LC-MS/MS analysis
Assay type: ADME, organism-based
Parameters: dose 30 mg/kg, route oral
Conditions: in vivo
readout.type: CL/F

[
  {
    "structure.string": "COc1ccc(C(=O)NC[C@H](O)CO)cc1/C=C/c1ccc(Cl)cc1",
    "readout.type": "CL/F",
    "result": "5.6 mL/min/kg"
  },
  {
    "structure.string": "COc1ccc(C(=O)NC[C@@H](O)CO)cc1/C=C/c1ccc(Cl)cc1",
    "readout.type": "CL/F",
    "result": "5.8 mL/min/kg"
  }
]
